# measurement.target: electric eel AChE (Electrophorus electricus)
# Sequence (O42275 24-633): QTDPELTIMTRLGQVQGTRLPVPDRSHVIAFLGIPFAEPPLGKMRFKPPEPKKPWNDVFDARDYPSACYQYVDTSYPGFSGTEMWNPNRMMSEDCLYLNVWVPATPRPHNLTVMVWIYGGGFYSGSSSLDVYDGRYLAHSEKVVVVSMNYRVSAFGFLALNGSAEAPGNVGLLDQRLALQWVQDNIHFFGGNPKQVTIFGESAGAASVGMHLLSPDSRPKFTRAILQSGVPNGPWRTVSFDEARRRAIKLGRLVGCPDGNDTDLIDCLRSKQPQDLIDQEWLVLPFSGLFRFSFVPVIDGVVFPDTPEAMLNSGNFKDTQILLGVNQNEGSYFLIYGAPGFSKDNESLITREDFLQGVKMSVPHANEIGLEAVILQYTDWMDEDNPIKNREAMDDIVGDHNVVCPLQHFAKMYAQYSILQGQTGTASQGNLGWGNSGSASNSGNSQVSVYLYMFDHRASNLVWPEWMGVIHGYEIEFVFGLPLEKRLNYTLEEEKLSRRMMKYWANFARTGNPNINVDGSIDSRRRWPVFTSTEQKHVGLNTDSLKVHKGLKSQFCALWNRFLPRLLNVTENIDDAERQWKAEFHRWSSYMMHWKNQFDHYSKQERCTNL
assay.readout: Ki (nM)

- COCc1c(Br)c(O)c(O)c(Br)c1Br: 710
- Oc1c(O)c(Br)c(COCc2c(Br)c(O)c(O)c(Br)c2Br)c(Br)c1Br: 640
- OCc1c(Br)c(O)c(O)c(Br)c1Br: 580

----------
IC50 tested on UniProtKB O42275: recorded values
assay.readout: IC50 (µM)

* COCc1c(Br)c(O)c(O)c(Br)c1Br [Compound 2] | 9.61
* COc1ccc2cc3[n+](cc2c1OC)CCc1cc2c(cc1-3)OCO2 [berberine, reference compound] | 1.17
* Oc1c(O)c(Br)c(COCc2c(Br)c(O)c(O)c(Br)c2Br)c(Br)c1Br [Compound 3] | 2.66
* OCc1c(Br)c(O)c(O)c(Br)c1Br [Compound 1] | 7.31

----------
Quick reference: IC50 of the listed items.
# measurement.target: human recombinant GSK-3β (Homo sapiens)
# Sequence (P49841 whole entry): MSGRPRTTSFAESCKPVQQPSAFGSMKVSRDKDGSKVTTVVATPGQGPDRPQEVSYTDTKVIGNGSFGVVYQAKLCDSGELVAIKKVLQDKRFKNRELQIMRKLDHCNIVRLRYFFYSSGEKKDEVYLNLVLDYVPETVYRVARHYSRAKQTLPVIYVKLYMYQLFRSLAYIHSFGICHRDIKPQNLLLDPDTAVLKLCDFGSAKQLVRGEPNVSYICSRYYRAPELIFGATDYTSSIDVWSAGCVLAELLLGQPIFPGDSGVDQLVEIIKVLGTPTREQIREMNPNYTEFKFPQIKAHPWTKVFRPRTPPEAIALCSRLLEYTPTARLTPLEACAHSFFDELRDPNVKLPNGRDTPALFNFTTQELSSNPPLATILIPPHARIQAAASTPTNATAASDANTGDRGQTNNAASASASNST
# test.summary: biochemical
assay.readout: IC50 (µM)

- COCc1c(Br)c(O)c(O)c(Br)c1Br: 140
- Oc1c(O)c(Br)c(COCc2c(Br)c(O)c(O)c(Br)c2Br)c(Br)c1Br: 56.5
- OCc1c(Br)c(O)c(O)c(Br)c1Br: 229
- O=c1cc(-c2ccc(O)c(O)c2)oc2cc(O)cc(O)c12 [luteolin, reference compound]: 5.42

----------
Recorded IC50, one value per entry.
# measurement.target: horse serum BChE (Equus caballus, UniProt P81908)
# Sequence (P81908 whole entry): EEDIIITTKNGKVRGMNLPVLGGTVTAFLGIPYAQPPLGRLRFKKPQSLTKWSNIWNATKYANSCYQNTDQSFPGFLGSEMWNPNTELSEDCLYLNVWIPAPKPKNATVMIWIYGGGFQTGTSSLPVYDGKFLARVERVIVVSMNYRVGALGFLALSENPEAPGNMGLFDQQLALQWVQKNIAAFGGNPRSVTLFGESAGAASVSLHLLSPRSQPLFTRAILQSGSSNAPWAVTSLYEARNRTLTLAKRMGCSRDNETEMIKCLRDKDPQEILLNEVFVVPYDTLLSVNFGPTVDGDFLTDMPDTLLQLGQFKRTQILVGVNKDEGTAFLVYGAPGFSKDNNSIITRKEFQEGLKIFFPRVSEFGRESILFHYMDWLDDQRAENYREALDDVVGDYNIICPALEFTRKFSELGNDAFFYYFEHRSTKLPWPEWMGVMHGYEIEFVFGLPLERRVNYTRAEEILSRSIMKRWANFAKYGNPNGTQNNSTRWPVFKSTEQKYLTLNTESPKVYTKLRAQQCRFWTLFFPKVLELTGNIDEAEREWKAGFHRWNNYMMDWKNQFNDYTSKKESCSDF
# test.summary: Cholinesterase enzyme inhibition assay
# Format: biochemical
assay.readout: IC50

• OCc1c(Br)c(O)c(O)c(Br)c1Br [Compound 1] = 8.95 µM
• Oc1c(O)c(Br)c(COCc2c(Br)c(O)c(O)c(Br)c2Br)c(Br)c1Br [Compound 3] = 4.03 µM
• COCc1c(Br)c(O)c(O)c(Br)c1Br [Compound 2] = 14.4 µM

----------
# measurement.target: horse serum BChE (Equus caballus)
# test.summary: Enzyme kinetics of BChE inhibition
Ki: recorded values
assay.readout: Ki (nM)

- COCc1c(Br)c(O)c(O)c(Br)c1Br: 510
- Oc1c(O)c(Br)c(COCc2c(Br)c(O)c(O)c(Br)c2Br)c(Br)c1Br: 370
- OCc1c(Br)c(O)c(O)c(Br)c1Br: 1150
